The values you see were collected from the RNAGym collection of RNA variant scans (doi:10.7554/elife.80360).

B1: HDV Ribozyme (parent)
chain: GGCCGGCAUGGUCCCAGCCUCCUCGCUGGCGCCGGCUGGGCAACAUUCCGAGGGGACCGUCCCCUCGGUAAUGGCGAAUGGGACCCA

Variants of: B1
Measurement Description: self-cleavage, relative activity (ratio to wild type); higher = more cleavage; co-transcriptional
Label condition met when self-cleavage is at or above 0.7; otherwise label condition not met.

>  <Variant Descriptor>
G2A C33A

>  <Class Assignment>
condition not met

$$$$
>  <Variant Descriptor>
C21U G39C

>  <Class Assignment>
condition not met

$$$$
>  <Variant Descriptor>
C41U C84G

>  <Class Assignment>
condition not met

$$$$
>  <Variant Descriptor>
G74A G82U

>  <Class Assignment>
condition not met

$$$$
>  <Variant Descriptor>
G11U U12C

>  <Class Assignment>
condition not met

$$$$
>  <Variant Descriptor>
U20C G76U

>  <Class Assignment>
condition not met

$$$$
>  <Variant Descriptor>
G1C C63G

>  <Class Assignment>
condition not met

$$$$
>  <Variant Descriptor>
A56G U65A

>  <Class Assignment>
condition met

$$$$
>  <Variant Descriptor>
U46C C86G

>  <Class Assignment>
condition met

$$$$
>  <Variant Descriptor>
U27G G34U

>  <Class Assignment>
condition not met

$$$$
>  <Variant Descriptor>
G76U A87C

>  <Class Assignment>
condition met

$$$$
>  <Variant Descriptor>
C21G C62A

>  <Class Assignment>
condition not met

$$$$
>  <Variant Descriptor>
G68C A70U

>  <Class Assignment>
condition met

$$$$
>  <Variant Descriptor>
C33A C41A

>  <Class Assignment>
condition not met

$$$$
>  <Variant Descriptor>
G53C A83U

>  <Class Assignment>
condition not met

$$$$
>  <Variant Descriptor>
C19G G25U

>  <Class Assignment>
condition not met

$$$$
>  <Variant Descriptor>
C44U U60A

>  <Class Assignment>
condition not met

$$$$
>  <Variant Descriptor>
C41U C64A

>  <Class Assignment>
condition met

$$$$
>  <Variant Descriptor>
G1A U23A

>  <Class Assignment>
condition not met

$$$$
>  <Variant Descriptor>
G55C A83C

>  <Class Assignment>
condition not met

$$$$
>  <Variant Descriptor>
C3U C26A

>  <Class Assignment>
condition met

$$$$
>  <Variant Descriptor>
C19U G67U

>  <Class Assignment>
condition not met

$$$$
>  <Variant Descriptor>
C14G G31C

>  <Class Assignment>
condition not met

$$$$
>  <Variant Descriptor>
G54U C62U

>  <Class Assignment>
condition met

$$$$
>  <Variant Descriptor>
C26U G74U

>  <Class Assignment>
condition met

$$$$
>  <Variant Descriptor>
C36A A70G

>  <Class Assignment>
condition not met

$$$$
>  <Variant Descriptor>
G55U G82A

>  <Class Assignment>
condition not met

$$$$
>  <Variant Descriptor>
A45U U69C

>  <Class Assignment>
condition met

$$$$
>  <Variant Descriptor>
C14G C22U

>  <Class Assignment>
condition not met

$$$$
>  <Variant Descriptor>
C7G U65G

>  <Class Assignment>
condition not met

$$$$
>  <Variant Descriptor>
U20C C32G

>  <Class Assignment>
condition not met

$$$$
>  <Variant Descriptor>
C22U G31A

>  <Class Assignment>
condition not met

$$$$
>  <Variant Descriptor>
C22A G67U

>  <Class Assignment>
condition not met

$$$$
>  <Variant Descriptor>
A56U A87G

>  <Class Assignment>
condition met

$$$$
>  <Variant Descriptor>
C7G U46C

>  <Class Assignment>
condition not met

$$$$
>  <Variant Descriptor>
C26A C61A

>  <Class Assignment>
condition met

$$$$
>  <Variant Descriptor>
C3U A70U

>  <Class Assignment>
condition not met

$$$$
